B1: CDKN1A (parent)
chain: GRKRRQTSMTDFYHSKRRLIFSKR

Variants of: B1
Assay: protein stability index of a GFP-peptide fusion (GPS, HEK-293T) (PSI 1-6); higher = more stable;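 also: lentivirally expressed fusions sorted by FACS into six bins by GFP to DsRed ratio, PSI derived from sequencing read proportions per bin multiplied by bin number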
Settings: c terminus: a fixed tail appended
# label = y if protein stability index >= 3 else n

changes: F12V
labelValue: y
//
changes: D11V
labelValue: n
//
changes: K3L
labelValue: y
//
changes: T10M
labelValue: n
//
changes: R24F
labelValue: n
//
changes: S22N
labelValue: n
//
changes: T7H
labelValue: n
//
changes: S8A
labelValue: n
//
changes: Q6H
labelValue: y
//
changes: S15L
labelValue: n
//
changes: M9E
labelValue: n
//
changes: D11A
labelValue: n
//
changes: R17N
labelValue: y
//
changes: I20W
labelValue: n
//
changes: G1A
labelValue: n
//
changes: L19F
labelValue: n
//
changes: M9A
labelValue: n
//
changes: F12D
labelValue: y
//
changes: R24M
labelValue: n
//
changes: R24P
labelValue: y
//
changes: F21M
labelValue: y
//
changes: Y13Q
labelValue: y
//
changes: F21T
labelValue: y
//
changes: F21W
labelValue: y
//
changes: S8I
labelValue: n
//
changes: D11N
labelValue: n
//
changes: R24T
labelValue: n
//
changes: F12E
labelValue: y
//
changes: R17V
labelValue: y
//
changes: K3H
labelValue: y
//
changes: S8P
labelValue: n
//
changes: R4A
labelValue: n
//
changes: R5F
labelValue: n
//
changes: K3T
labelValue: n
//
changes: R4E
labelValue: y
//
changes: R17F
labelValue: n
//
changes: Y13T
labelValue: y
//
changes: R18N
labelValue: n
//
changes: H14Q
labelValue: y
//
changes: Y13C
labelValue: y
//
changes: R24W
labelValue: y
//
changes: K16G
labelValue: n
